Data provenance is ChEMBL document CHEMBL1133509.

# Species on record: Mus musculus
# method-notes: Inhibition of nitric oxide (NO) production induced by interferon-gamma (IFN-gamma) in mouse macrophages
# Assay type: functional
reported-metric: log10(IC50) (log10 of the value in nM)
The base-10 logarithm of IC50, taken with IC50 in nM, is what appears here.

// below: answered molecules
COC(=O)[C@]12CCC(C)(C)CC1C1C(=O)C=C3[C@@]4(C)C=C(C(N)=O)C(=O)C(C)(C)[C@@H]4CC[C@@]3(C)[C@]1(C)CC2 (stereo partly drawn) ... 2.00
COC(=O)[C@]12CC[C@@H](C)[C@H](C)C1C1=CC(=O)[C@@H]3[C@@]4(C)C=CC(=O)C(C)(C)[C@@H]4CC[C@@]3(C)[C@]1(C)CC2 (stereo partly drawn) ... 3.95

Entry under test: COC(=O)[C@]12CCC(C)(C)CC1C1C(=O)C=C3[C@@]4(C)C=C(C=O)C(=O)C(C)(C)[C@@H]4CC[C@@]3(C)[C@]1(C)CC2 (stereo partly drawn) . Its log10(IC50) was 2.00
